# credit: paper PMC8542630

- subject-of-test: Hs-dynein 1 (Homo sapiens, UniProt Q14204)
- Sequence (Q14204 1320-4646): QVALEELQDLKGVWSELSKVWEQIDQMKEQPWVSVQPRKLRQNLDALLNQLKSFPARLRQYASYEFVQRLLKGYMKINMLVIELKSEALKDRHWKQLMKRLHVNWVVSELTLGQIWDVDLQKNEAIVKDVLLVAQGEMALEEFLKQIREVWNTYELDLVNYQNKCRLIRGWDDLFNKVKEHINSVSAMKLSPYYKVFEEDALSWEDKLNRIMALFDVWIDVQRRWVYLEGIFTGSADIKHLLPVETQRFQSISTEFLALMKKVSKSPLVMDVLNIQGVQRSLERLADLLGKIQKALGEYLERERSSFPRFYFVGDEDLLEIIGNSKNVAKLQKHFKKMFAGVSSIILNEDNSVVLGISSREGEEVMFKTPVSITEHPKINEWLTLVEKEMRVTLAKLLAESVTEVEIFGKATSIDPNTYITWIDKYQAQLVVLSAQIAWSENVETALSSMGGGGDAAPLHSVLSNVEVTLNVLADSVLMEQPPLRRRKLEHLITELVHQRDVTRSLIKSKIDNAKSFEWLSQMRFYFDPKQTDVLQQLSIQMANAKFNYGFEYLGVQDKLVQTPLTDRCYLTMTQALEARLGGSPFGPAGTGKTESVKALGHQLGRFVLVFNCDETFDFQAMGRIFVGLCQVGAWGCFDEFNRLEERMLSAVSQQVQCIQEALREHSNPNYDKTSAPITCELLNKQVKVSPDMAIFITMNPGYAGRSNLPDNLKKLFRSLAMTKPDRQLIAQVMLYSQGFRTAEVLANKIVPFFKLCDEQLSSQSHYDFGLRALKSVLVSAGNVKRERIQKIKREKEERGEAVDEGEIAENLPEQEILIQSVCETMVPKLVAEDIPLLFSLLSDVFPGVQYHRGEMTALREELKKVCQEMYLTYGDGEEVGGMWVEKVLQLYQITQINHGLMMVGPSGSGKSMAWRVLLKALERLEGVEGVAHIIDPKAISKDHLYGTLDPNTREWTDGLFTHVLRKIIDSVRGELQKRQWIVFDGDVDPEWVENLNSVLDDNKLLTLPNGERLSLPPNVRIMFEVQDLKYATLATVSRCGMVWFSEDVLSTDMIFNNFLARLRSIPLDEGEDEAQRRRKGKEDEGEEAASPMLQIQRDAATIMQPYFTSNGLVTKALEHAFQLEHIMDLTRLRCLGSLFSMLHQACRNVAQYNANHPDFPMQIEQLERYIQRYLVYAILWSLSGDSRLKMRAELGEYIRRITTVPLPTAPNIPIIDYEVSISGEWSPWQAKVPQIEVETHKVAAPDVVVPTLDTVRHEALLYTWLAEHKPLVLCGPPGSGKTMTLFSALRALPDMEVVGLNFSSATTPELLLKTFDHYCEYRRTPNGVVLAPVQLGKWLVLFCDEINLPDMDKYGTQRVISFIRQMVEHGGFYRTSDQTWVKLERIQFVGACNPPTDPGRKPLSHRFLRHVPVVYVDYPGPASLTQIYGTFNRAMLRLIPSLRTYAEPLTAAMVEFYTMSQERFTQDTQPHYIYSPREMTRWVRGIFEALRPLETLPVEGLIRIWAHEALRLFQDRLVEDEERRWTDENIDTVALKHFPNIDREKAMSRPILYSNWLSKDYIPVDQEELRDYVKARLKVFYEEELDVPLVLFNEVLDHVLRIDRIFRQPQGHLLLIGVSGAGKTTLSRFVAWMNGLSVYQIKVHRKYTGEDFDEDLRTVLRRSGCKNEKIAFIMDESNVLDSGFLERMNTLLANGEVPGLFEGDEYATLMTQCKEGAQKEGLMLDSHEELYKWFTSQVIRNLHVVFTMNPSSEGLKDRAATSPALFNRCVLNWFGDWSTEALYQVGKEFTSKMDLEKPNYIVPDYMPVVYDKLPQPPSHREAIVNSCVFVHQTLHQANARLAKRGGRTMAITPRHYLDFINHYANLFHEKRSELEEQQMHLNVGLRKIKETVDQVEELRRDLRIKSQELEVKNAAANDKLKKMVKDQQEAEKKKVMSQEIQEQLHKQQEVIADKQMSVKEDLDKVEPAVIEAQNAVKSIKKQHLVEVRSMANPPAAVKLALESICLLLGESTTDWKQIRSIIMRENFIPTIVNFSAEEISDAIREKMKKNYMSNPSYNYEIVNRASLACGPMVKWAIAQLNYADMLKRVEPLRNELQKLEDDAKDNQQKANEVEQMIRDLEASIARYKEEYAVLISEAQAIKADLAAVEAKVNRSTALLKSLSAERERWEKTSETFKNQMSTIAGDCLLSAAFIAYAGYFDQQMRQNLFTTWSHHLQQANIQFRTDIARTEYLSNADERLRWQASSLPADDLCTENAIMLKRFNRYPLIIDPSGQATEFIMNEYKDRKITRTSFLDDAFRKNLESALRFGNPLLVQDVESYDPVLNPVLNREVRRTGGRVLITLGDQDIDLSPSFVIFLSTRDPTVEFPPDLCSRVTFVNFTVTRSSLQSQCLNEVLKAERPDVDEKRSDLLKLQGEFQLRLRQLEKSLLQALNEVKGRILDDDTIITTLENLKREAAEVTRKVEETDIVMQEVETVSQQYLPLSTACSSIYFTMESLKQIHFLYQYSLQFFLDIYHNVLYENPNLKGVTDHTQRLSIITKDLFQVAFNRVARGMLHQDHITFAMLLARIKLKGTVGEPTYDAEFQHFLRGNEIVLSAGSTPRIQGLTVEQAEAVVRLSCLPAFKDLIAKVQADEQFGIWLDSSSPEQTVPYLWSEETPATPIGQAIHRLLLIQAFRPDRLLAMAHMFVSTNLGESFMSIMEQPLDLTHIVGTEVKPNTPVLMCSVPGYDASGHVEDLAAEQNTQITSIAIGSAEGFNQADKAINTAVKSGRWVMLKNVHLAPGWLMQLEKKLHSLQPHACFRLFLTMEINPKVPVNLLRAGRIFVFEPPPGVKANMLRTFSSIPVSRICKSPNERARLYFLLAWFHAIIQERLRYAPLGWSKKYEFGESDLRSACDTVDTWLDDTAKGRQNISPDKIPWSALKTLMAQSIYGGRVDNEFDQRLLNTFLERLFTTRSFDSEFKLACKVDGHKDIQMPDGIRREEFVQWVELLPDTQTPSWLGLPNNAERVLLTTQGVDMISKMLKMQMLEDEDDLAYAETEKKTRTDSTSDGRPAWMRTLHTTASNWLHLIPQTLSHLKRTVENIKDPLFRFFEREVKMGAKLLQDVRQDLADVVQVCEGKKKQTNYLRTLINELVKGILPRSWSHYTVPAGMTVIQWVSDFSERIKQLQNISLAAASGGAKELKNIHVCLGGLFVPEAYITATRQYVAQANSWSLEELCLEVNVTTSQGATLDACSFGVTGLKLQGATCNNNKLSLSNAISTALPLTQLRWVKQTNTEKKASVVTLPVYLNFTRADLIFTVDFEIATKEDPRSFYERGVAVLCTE
- method-description: Radioactive ATPase assay, basal ATPase activity of Hs-dynein 1
- Format: biochemical
Attribute: IC50

mol-smiles: N#Cc1c(C2(c3ccc(Cl)cc3)CC2)nn2c(=O)c(Oc3cccc(Br)c3)c[nH]c12
IC50 / µM: 12

mol-smiles: N#Cc1c(C2(c3ccc(Cl)cc3)CC2)nn2c(=O)c(Oc3cccc(Cl)c3)c[nH]c12
IC50 / µM: 17

* * *

- subject-of-test: GFP-Sc-Dyn (Saccharomyces cerevisiae)
- method-description: Microscale thermophoresis
- Type: binding, S. cerevisiae
- condition-details: EC50, binding to WT GFP-Sc-Dyn (MST), mean ± 95% CI, n=4, Figure 5N, compared with V2391S/M2732S mutant
pEC50: −log10 of the molar value.
measurement-kind: pEC50

compound: N#Cc1c(C2(c3ccc(Cl)cc3)CC2)nn2c(=O)c(Oc3cccc(Br)c3)c[nH]c12 [compound 20]
recorded-measurement: 4.44
